MEASUREMENT TARGET: Adenosine receptor A3 (Homo sapiens)
Sequence (P0DMS8 whole entry): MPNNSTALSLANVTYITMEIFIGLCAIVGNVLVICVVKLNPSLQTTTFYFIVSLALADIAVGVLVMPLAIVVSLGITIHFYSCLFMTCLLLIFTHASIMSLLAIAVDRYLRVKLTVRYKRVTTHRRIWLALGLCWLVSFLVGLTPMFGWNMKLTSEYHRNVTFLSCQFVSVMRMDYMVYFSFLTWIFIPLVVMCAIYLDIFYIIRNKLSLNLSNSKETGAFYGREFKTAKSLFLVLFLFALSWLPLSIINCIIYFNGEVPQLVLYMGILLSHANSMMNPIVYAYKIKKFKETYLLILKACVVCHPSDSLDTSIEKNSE
ASSAY SUMMARY: Displacement of [3H]NECA from human recombinant adenosine A3 receptor expressed in HeLa cells by beta scintillation counter
PARAMETER: pKi
pKi is a log-scale quantity: -log10 of the concentration expressed in molar.

Just so you know, measured pKi for `Cn1c(=O)c2[nH]c(-c3ccc(COC(=O)Nc4ccsc4)cc3)cc2n(C)c1=O` came out at 6.44

Just so you know, measured pKi for `CCCn1c(=O)c2[nH]c(-c3ccc(COC(=O)Nc4ccccc4)cc3)cc2n(CCC)c1=O` came out at 6.48

Just so you know, measured pKi for `Cn1c(=O)c2[nH]c(-c3ccc(COC(=O)Nc4ccccc4)cc3)cc2n(C)c1=O` came out at 6.56

Just so you know, measured pKi for `CCCn1c(=O)c2[nH]c(-c3ccc(COC(=O)Nc4ccc(F)cc4)cc3)cc2n(CCC)c1=O` came out at 7.15

Just so you know, measured pKi for `Cn1c(=O)c2[nH]c(-c3ccc(COC(=O)Nc4ccc(F)cc4)cc3)cc2n(C)c1=O` came out at 6.06

====

Exercise: state measured pKi for each of the compounds provided.
MEASUREMENT TARGET: Adenosine receptor A2a (Homo sapiens)
Sequence (P29274 whole entry): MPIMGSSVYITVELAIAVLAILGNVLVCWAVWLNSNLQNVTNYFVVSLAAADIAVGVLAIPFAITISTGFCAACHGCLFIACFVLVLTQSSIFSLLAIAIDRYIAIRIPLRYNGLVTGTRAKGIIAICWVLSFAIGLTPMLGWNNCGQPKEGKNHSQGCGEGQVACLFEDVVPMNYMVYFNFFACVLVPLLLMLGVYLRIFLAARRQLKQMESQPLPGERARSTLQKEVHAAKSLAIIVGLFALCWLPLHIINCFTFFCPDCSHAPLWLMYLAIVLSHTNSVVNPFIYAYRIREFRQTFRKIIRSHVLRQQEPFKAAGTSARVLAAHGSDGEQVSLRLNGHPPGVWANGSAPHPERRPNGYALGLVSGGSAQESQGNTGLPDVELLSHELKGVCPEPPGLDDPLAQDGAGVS
ASSAY SUMMARY: Displacement of [3H]ZM241385 from human recombinant adenosine A2A receptor expressed in HeLa cells by beta scintillation counter
pKi is a log-scale quantity: -log10 of the concentration expressed in molar.

Summary: `Cn1c(=O)c2[nH]c(-c3ccc(COC(=O)Nc4ccccn4)cc3)cc2n(C)c1=O` , Adenosine receptor A2a (Homo sapiens), pKi = 6.31

Summary: `CCCn1c(=O)c2[nH]c(-c3ccc(COC(=O)N4CCN(c5ccccc5)CC4)cc3)cc2n(CCC)c1=O` , Adenosine receptor A2a (Homo sapiens), pKi = 6.35

Summary: `Cn1c(=O)c2[nH]c(-c3ccc(COC(=O)Nc4ccccc4)cc3)cc2n(C)c1=O` , Adenosine receptor A2a (Homo sapiens), pKi = 7.46

Summary: `CCCn1c(=O)c2[nH]c(-c3ccc(COC(=O)Nc4ccon4)cc3)cc2n(CCC)c1=O` , Adenosine receptor A2a (Homo sapiens), pKi = 7.66

Summary: `CCCn1c(=O)c2[nH]c(-c3ccc(COC(=O)Nc4ccsc4)cc3)cc2n(CCC)c1=O` , Adenosine receptor A2a (Homo sapiens), pKi = 5.48

Summary: `Cn1c(=O)c2[nH]c(-c3ccc(COC(=O)Nc4ccsc4)cc3)cc2n(C)c1=O` , Adenosine receptor A2a (Homo sapiens), pKi = 7.98

Summary: `CCCn1c(=O)c2[nH]c(-c3ccc(COC(=O)Nc4ccc(F)cc4)cc3)cc2n(CCC)c1=O` , Adenosine receptor A2a (Homo sapiens), pKi = 6.93

Summary: `Cn1c(=O)c2[nH]c(-c3ccc(COC(=O)N4CCN(c5ccccc5)CC4)cc3)cc2n(C)c1=O` , Adenosine receptor A2a (Homo sapiens), pKi = 6.88

Summary: `CCCn1c(=O)c2[nH]c(-c3ccc(COC(=O)Nc4ccccc4)cc3)cc2n(CCC)c1=O` , Adenosine receptor A2a (Homo sapiens), pKi = 7.54

====

MEASUREMENT TARGET: UniProtKB P30542
Sequence (P30542 whole entry): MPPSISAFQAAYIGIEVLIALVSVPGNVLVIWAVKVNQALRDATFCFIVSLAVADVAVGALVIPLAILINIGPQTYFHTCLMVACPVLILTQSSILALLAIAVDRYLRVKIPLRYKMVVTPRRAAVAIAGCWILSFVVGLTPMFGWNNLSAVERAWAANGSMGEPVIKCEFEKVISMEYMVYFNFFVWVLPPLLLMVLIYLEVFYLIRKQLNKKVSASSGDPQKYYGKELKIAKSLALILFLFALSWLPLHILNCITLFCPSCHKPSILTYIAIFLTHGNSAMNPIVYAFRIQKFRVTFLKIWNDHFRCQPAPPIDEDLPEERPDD
ASSAY SUMMARY: Displacement of [3H]DPCPX from human recombinant adenosine A1 receptor expressed in CHO cells by beta scintillation counter
Type: cell-based
Exercise: state measured Ki for each of the molecules provided.
Entry rule: numbers only, all in µM.

Just so you know, measured Ki for `Cn1c(=O)c2[nH]c(-c3ccc(COC(=O)Nc4ccc(F)cc4)cc3)cc2n(C)c1=O` came out at 0.0178

Just so you know, measured Ki for `Cn1c(=O)c2[nH]c(-c3ccc(COC(=O)Nc4ccsc4)cc3)cc2n(C)c1=O` came out at 0.01

Just so you know, measured Ki for `Cn1c(=O)c2[nH]c(-c3ccc(COC(=O)Nc4ccccc4)cc3)cc2n(C)c1=O` came out at 0.0022

Just so you know, measured Ki for `CCCn1c(=O)c2[nH]c(-c3ccc(COC(=O)Nc4ccc(F)cc4)cc3)cc2n(CCC)c1=O` came out at 0.0004

Just so you know, measured Ki for `CCCn1c(=O)c2[nH]c(-c3ccc(COC(=O)Nc4ccccc4)cc3)cc2n(CCC)c1=O` came out at 0.0204

====

Organism: Homo sapiens
ASSAY SUMMARY: Selectivity index, ratio of Ki for human recombinant adenosine A2A receptor to Ki for human recombinant adenosine A2B receptor
Note to self: values exactly at 7 are fulfilled. So Ratio Ki at or above 7 is fulfilled, below is not fulfilled.

Record `CCCn1c(=O)c2[nH]c(-c3ccc(COC(=O)Nc4ccsc4)cc3)cc2n(CCC)c1=O` ; criterion: Ratio Ki no lower than 7. Met?
not fulfilled

Record `Cn1c(=O)c2[nH]c(-c3ccc(COC(=O)Nc4ccccn4)cc3)cc2n(C)c1=O` ; criterion: Ratio Ki no lower than 7. Met?
not fulfilled

Record `Cn1c(=O)c2[nH]c(-c3ccc(COC(=O)Nc4ccco4)cc3)cc2n(C)c1=O` ; criterion: Ratio Ki no lower than 7. Met?
not fulfilled

Record `CCCn1c(=O)c2[nH]c(-c3ccc(COC(=O)Nc4ccon4)cc3)cc2n(CCC)c1=O` ; criterion: Ratio Ki no lower than 7. Met?
fulfilled

Record `CCCn1c(=O)c2[nH]c(-c3ccc(COC(=O)Nc4cnccn4)cc3)cc2n(CCC)c1=O` ; criterion: Ratio Ki no lower than 7. Met?
not fulfilled

Record `CCCn1c(=O)c2[nH]c(-c3ccc(COC(=O)N4CCN(c5cccc(Cl)c5)CC4)cc3)cc2n(CCC)c1=O` ; criterion: Ratio Ki no lower than 7. Met?
not fulfilled

Record `Cn1c(=O)c2[nH]c(-c3ccc(COC(=O)Nc4ccsc4)cc3)cc2n(C)c1=O` ; criterion: Ratio Ki no lower than 7. Met?
fulfilled

Record `CCCn1c(=O)c2[nH]c(-c3ccc(COC(=O)N4CCN(c5ccc(F)cc5)CC4)cc3)cc2n(CCC)c1=O` ; criterion: Ratio Ki no lower than 7. Met?
not fulfilled

Record `CCCn1c(=O)c2[nH]c(-c3ccc(COC(=O)Nc4ccc(F)cc4)cc3)cc2n(CCC)c1=O` ; criterion: Ratio Ki no lower than 7. Met?
fulfilled

====

Species: Homo sapiens
ASSAY SUMMARY: Selectivity index, ratio of Ki for human recombinant adenosine A2A receptor to Ki for human recombinant adenosine A2B receptor
Exercise: state measured Ratio Ki for each of the compounds provided.
The answer should be a number; do not append a unit.

Just so you know, measured Ratio Ki for `Cn1c(=O)c2[nH]c(-c3ccc(COC(=O)Nc4ccccc4)cc3)cc2n(C)c1=O` came out at 12.6

Just so you know, measured Ratio Ki for `Cn1c(=O)c2[nH]c(-c3ccc(COC(=O)N4CCN(c5ccccc5)CC4)cc3)cc2n(C)c1=O` came out at 11.5

Just so you know, measured Ratio Ki for `CCCn1c(=O)c2[nH]c(-c3ccc(COC(=O)Nc4cccs4)cc3)cc2n(CCC)c1=O` came out at 3.7

Just so you know, measured Ratio Ki for `Cn1c(=O)c2[nH]c(-c3ccc(COC(=O)Nc4ccc(F)cc4)cc3)cc2n(C)c1=O` came out at 7.6

Just so you know, measured Ratio Ki for `CCCn1c(=O)c2[nH]c(-c3ccc(COC(=O)Nc4cc[nH]n4)cc3)cc2n(CCC)c1=O` came out at 1.7

Just so you know, measured Ratio Ki for `CCCn1c(=O)c2[nH]c(-c3ccc(COC(=O)Nc4ccccc4)cc3)cc2n(CCC)c1=O` came out at 4.1

Just so you know, measured Ratio Ki for `Cn1c(=O)c2[nH]c(-c3ccc(COC(=O)NCc4ccccc4)cc3)cc2n(C)c1=O` came out at 61.6

Just so you know, measured Ratio Ki for `Cn1c(=O)c2[nH]c(-c3ccc(COC(=O)N4CCc5ccccc5C4)cc3)cc2n(C)c1=O` came out at 20.4

Just so you know, measured Ratio Ki for `Cn1c(=O)c2[nH]c(-c3ccc(COC(=O)Nc4cccs4)cc3)cc2n(C)c1=O` came out at 15.1

====

MEASUREMENT TARGET: Adenosine receptor A2b (Homo sapiens, UniProt P29275)
Sequence (P29275 whole entry): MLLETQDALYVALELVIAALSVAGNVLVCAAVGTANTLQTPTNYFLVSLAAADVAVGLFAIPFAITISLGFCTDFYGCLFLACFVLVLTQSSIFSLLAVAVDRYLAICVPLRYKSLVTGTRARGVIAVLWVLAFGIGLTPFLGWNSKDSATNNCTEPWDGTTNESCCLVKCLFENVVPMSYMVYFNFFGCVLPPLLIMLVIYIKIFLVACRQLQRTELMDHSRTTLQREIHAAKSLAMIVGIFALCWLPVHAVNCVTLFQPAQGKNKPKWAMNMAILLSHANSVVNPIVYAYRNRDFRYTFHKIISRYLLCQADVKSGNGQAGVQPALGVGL
ASSAY SUMMARY: Displacement of [3H]DPCPX from human recombinant adenosine A2B receptor expressed in HEK293 cells by beta scintillation counter
Exercise: state measured Ki for each of the compounds provided.
Entry rule: numbers only, all in nM.

Just so you know, measured Ki for `CCCn1c(=O)c2[nH]c(-c3ccc(COC(=O)N4CCN(c5ccc(F)cc5)CC4)cc3)cc2n(CCC)c1=O` came out at 42.7

Just so you know, measured Ki for `CCCn1c(=O)c2[nH]c(-c3ccc(COC(=O)Nc4cccs4)cc3)cc2n(CCC)c1=O` came out at 602

Just so you know, measured Ki for `CCCn1c(=O)c2[nH]c(-c3ccc(COC(=O)Nc4cc[nH]n4)cc3)cc2n(CCC)c1=O` came out at 5.9

Just so you know, measured Ki for `Cn1c(=O)c2[nH]c(-c3ccc(COC(=O)N4CCc5ccccc5C4)cc3)cc2n(C)c1=O` came out at 2.1

Just so you know, measured Ki for `Cn1c(=O)c2[nH]c(-c3ccc(COC(=O)NCc4ccccc4)cc3)cc2n(C)c1=O` came out at 16.2

Just so you know, measured Ki for `Cn1c(=O)c2[nH]c(-c3ccc(COC(=O)Nc4ccc(F)cc4)cc3)cc2n(C)c1=O` came out at 9.5

Just so you know, measured Ki for `Cn1c(=O)c2[nH]c(-c3ccc(COC(=O)N4CCN(c5ccccc5)CC4)cc3)cc2n(C)c1=O` came out at 11.5

Just so you know, measured Ki for `CCCn1c(=O)c2[nH]c(-c3ccc(COC(=O)N4CCN(c5cccc(Cl)c5)CC4)cc3)cc2n(CCC)c1=O` came out at 24
